Can you tell me pIC50 for the items I'm about to list?
# System: T24-BAG4 human bladder carcinoma cells expressing an activated H-ras gene
# measurement.protocol: Cell Mat Assay: tumor cell colony inhibition (tIC50)
# Format: cell-based
# experimental.context: inhibition of tumor cell growth
Give bare numbers, as −log10 of the molar value.

Before answering, review these 2 worked examples.
| molecule | pIC50 |
| --- | --- |
| O=C(Nc1cccnc1)N1CCC(C2c3ccccc3CCc3cccnc32)CC1 (stereo not shown) [Example 365] | 5.20 |
| O=C(Cc1ccncc1)N1CCC(=C2c3ccc(Cl)cc3CCc3cc(Cl)cnc32)CC1 [Example 180] | 4.74 |

Hello, I would appreciate it if you could give pIC50 for each entry below.
1. O=C(Cc1cc[n+]([O-])cc1)N1CCC(=C2c3ccc(Cl)cc3CCc3cccnc32)CC1 [227 (5.102)]
2. O=C(Nc1cccnc1)N1CCN(C2c3ccc(Cl)cc3CCc3cccnc32)CC1 (stereo not shown) [187 (6.7)]
3. CC(C)(C)C(=O)N1CCC(=C2c3ccc(Cl)cc3CCc3cccnc32)CC1 [Example 53]
4. O=C(Nc1ccncc1)N1CCC(C2c3ccccc3CCc3cccnc32)CC1 (stereo not shown) [Example 366]

Response:
5.40
4.60
4.60
5.51

----------
What IC50 was measured for each of the following?
# target.or.system: geranylgeranyl protein transferase (GGPT) I (Rattus norvegicus, UniProt P53610+Q04631)
# Construct: were partially purified from rat brain by ammonium sulfate fractionation followed by Q-Sepharose
# Sequence (P53610 whole entry, one chain of several): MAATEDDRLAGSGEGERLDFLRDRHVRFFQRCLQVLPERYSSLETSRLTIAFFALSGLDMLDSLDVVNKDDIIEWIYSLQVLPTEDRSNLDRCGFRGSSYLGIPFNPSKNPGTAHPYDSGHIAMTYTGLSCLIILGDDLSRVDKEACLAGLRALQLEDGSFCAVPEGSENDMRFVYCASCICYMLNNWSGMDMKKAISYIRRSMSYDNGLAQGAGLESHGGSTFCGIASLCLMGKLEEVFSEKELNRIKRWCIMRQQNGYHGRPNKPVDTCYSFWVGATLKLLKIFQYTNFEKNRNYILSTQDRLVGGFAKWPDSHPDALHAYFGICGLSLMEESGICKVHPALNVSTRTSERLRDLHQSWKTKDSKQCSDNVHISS
# measurement.protocol: Inhibition of geranylgeranyl protein transferase I (Ras-CVLL as acceptor)
# Assay type: biochemical
# experimental.context: enzyme inhibition

# example entries with known answers
| compound | IC50 |
| --- | --- |
| Cc1cnc2c(c1)CCc1cc(Cl)ccc1C2=C1CCN(C(=O)Cc2cccnc2)CC1 | > 43 µM |
| CO[C@@](C(=O)N1CCC(=C2c3ccc(Cl)cc3CCc3cccnc32)CC1)(c1ccccc1)C(F)(F)F | > 38 µM |
| O=C(OC(C(=O)N1CCC(=C2c3ccc(Cl)cc3CCc3cccnc32)CC1)c1ccccc1)c1ccncc1 (centres unmarked) | > 35 µM |
| O=C(Cc1ccc(Br)cc1)N1CCN(C2c3ccc(Cl)cc3CCc3cccnc32)CC1 (centres unmarked) | > 39 µM |
| O=C(Nc1ccncc1)N1CCC(=C2c3ccc(Cl)cc3CCc3cccnc32)CC1 | > 46 µM |
| CC(C)(C(=O)N1CCC(C2c3ccc(Cl)cc3CCc3cccnc32)CC1)c1ccccc1 (centres unmarked) | > 43 µM |
| O=C(CN1C(=O)c2ccccc2C1=O)N1CCC(=C2c3ccc(Cl)cc3CCc3cccnc32)CC1 | > 39 µM |

We now examine a further compound.
Prompt: Name the recorded IC50 for CN1CCCC(CC(=O)N2CCC(=C3c4ccc(Cl)cc4CCc4cc(Br)cnc43)CC2)C1 (centres unmarked) .
Response: 1000 µM

----------
Please go through the items and note down their pIC50.
# target.or.system: farnesyl protein transferase (FPT), partially purified from rat brain (Rattus norvegicus, UniProt Q02293+Q04631)
# Construct: were partially purified from rat brain by ammonium sulfate fractionation followed by Q-Sepharose
# Sequence (Q02293 whole entry, one chain of several): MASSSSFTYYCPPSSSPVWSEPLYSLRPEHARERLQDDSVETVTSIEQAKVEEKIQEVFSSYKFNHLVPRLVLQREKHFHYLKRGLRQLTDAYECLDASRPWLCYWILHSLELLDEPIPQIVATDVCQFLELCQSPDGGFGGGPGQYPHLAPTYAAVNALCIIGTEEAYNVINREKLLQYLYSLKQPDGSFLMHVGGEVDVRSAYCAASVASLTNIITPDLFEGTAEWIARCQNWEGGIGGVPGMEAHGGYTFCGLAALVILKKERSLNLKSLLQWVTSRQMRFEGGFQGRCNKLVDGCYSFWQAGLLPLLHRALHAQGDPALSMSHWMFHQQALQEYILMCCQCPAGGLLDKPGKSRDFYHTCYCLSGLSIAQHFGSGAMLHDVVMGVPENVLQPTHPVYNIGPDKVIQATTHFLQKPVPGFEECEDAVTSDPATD
# measurement.protocol: Inhibition of farnesyl protein transferase (transfer of [3H]farnesyl to Ras-CVLS)
# Type: biochemical
# experimental.context: Ras-CVLS farnesylation, partially purified rat brain FPT; read-out: FPT IC50
Give bare numbers, as −log10 of the molar value.

Below, 7 compounds whose answers are already recorded.
| compound | pIC50 |
| --- | --- |
| O=C(c1cc[n+]([O-])cc1)N1CCC(=C2c3ccccc3CCc3ccccc32)CC1 | 4.82 |
| O=C(Cc1ccccc1)NCC(=O)N1CCN(C2c3ccc(Cl)cc3CCc3cccnc32)CC1 (centres unmarked) | 5.10 |
| O=C(Cc1cccnc1)N1CCC(=C2c3ccc(Cl)cc3CCc3cccnc32)CC1 | 6.33 |
| CC(=O)N1CCC(=C2c3cc4ccccc4cc3CCc3cccnc32)CC1 [Example 71A] | 4.75 |
| O=C(Cc1cccnc1)N1CCC(=C2c3ccc(Cl)cc3C(O)Cc3cccnc32)CC1 (centres unmarked) | 5.37 |
| CN1CCN(CC(=O)N2CCC(=C3c4ccc(Cl)cc4CCc4cc(Br)cnc43)CC2)CC1 | 5.72 |
| O=C(Cc1cccnc1)N1CCC(C2c3ccc(Cl)cc3C=Cc3c(Cl)ccnc32)CC1 (centres unmarked) | 6.08 |

# evaluate next
Prompt: # get_value(readout='pIC50', item= `CC(C)(C(=O)N1CCC(=C2c3ccc(Cl)cc3CCc3cc(Br)cnc32)CC1)c1ccncc1` )
Response: 6.49

----------
# target.or.system: farnesyl protein transferase (FPT), partially purified from rat brain (Rattus norvegicus, UniProt Q02293+Q04631)
# Construct: were partially purified from rat brain by ammonium sulfate fractionation followed by Q-Sepharose
# measurement.protocol: Inhibition of farnesyl protein transferase (transfer of [3H]farnesyl to Ras-CVLS)
# Assay type: biochemical
# experimental.context: enzyme inhibition; read-out: FPT IC50
property.measured: pIC50
One number for each entry, as −log10 of the molar value.

I'm hoping you can list pIC50 for every compound here, please.
1. O=C(Cc1ccncc1)N1CCC(=C2c3ccc(Cl)cc3CCc3cc(F)cnc32)CC1
2. CCc1cc2c(cc1Cl)C=Cc1cccnc1C2C1CCN(C(=O)Cc2ccncc2)CC1 (stereo not shown)
3. O=C(Cc1ccnc(N2CCCCC2)c1)N1CCC(=C2c3ccc(Cl)cc3CCc3cc(Br)cnc32)CC1
4. NC(=O)N1CCC(CC(=O)N2CCN(C3c4ccc(Cl)cc4CCc4cccnc43)CC2)CC1 (stereo not shown)
5. CN1CCC(CC(=O)N2CCN(C3c4ccc(Cl)cc4CCc4c(Cl)ccnc43)CC2)CC1 (stereo not shown)
6. CN1CCCC(CC(=O)N2CCC(=C3c4ccc(Cl)cc4CCc4cc(F)cnc43)CC2)C1 (stereo not shown)

Response:
[6.19, 5.94, 5.74, 6.09, 6.35, 5.68]

----------
property.measured: melting point

The cases that follow already have their melting point on record.
| compound | melting point |
| --- | --- |
| O=C(Cc1ccncc1)N1CCC(=C2c3ccc(Cl)cc3CCc3cc([N+](=O)[O-])cnc32)CC1 | 111.3 to 112.2 °C |
| O=C(C(CO)c1ccccc1)N1CCC(=C2c3ccc(Cl)cc3CCc3cccnc32)CC1 (centres unmarked) | 92.7 to 93 °C |
| CCC(C(=O)N1CCC(=C2c3ccc(Cl)cc3CCc3cccnc32)CC1)c1ccccc1 (centres unmarked) | 82.7 to 83.8 °C |
| O=C1CCC(C(=O)N2CCC(=C3c4ccc(Cl)cc4CCc4cccnc43)CC2)=NN1 | 190 to 193 °C |
| CN1CCC(CC(=O)N2CCC(=C3c4ccc(Cl)cc4CCc4c3ncc(Br)c4Cl)CC2)CC1 | 105 °C (dec.) |

Please state, for each entry, its recorded melting point.
1. O=C(O)c1ccc2c(c1)CCc1cccnc1C2=C1CCN(C(=O)Cc2ccncc2)CC1
2. O=C(Cc1ccccc1)N1CCC(=C2c3ccc(Cl)cc3CCc3cccnc32)CC1
3. O=C(Cc1cc[n+]([O-])cc1)N1CCC(C2c3ccc(Cl)cc3CCc3ccc[n+]([O-])c32)CC1 (centres unmarked)
4. O=C(Cc1ccncc1)N1CCC(=C2c3ccc(Cl)cc3CCc3cc(Br)c(O)nc32)CC1

Response:
1: 238 to 240 °C; 2: 112 to 114.6 °C; 3: 85 to 85.6 °C; 4: 150 °C (dec.)

Hey, can you go through the list below and give me melting point for every item?
1. O=C(C(=O)N1CCC(=C2c3ccc(Cl)cc3CCc3cccnc32)CC1)c1c[nH]c2ccccc12
2. O=C(Cc1ccncc1)N1CCC(C2c3ccc(Cl)cc3CCc3ccc[n+]([O-])c32)CC1 (centres unmarked)
3. O=C(Cc1cccnc1)N1CCC(=C2c3ccc(Cl)cc3CCc3c(On4nnc5ccccc54)ccnc32)CC1
4. O=C(Cc1ccncc1)N1CCC(=C2c3ccc(Cl)cc3CCc3c(On4nnc5ccccc54)ccnc32)CC1

Response:
192 to 193 °C
116.7 to 117.6 °C
120 to 122 °C
98.6 to 101.6 °C

For every record below, what is its melting point?
1. O=C(Cc1ccccc1[N+](=O)[O-])C(=O)N1CCC(=C2c3ccc(Cl)cc3CCc3cccnc32)CC1
2. O=C(Nc1ccccc1)N1CCC(=C2c3ccc(Cl)cc3CCc3c2ncc(Br)c3Cl)CC1
3. O=C(c1ccncc1)N1CCC(=C2c3ccc(Cl)cc3CCc3cccnc32)CC1
4. CC(C)(C)OC(=O)NCCSc1ccnc2c1CCc1cc(Cl)ccc1C2=C1CCN(C(=O)Cc2cccnc2)CC1

Response:
["282 to 285 °C", "125.6 °C (dec.)", "176 to 178 °C", "59.8 to 63.5 °C"]

----------
# target.or.system: geranylgeranyl protein transferase (GGPT) I (Rattus norvegicus, UniProt P53610+Q04631)
# Construct: were partially purified from rat brain by ammonium sulfate fractionation followed by Q-Sepharose
# measurement.protocol: Inhibition of geranylgeranyl protein transferase I (Ras-CVLL as acceptor)
# Format: biochemical
# experimental.context: enzyme inhibition
property.measured: IC50

| molecule | target.or.system | result |
| --- | --- | --- |
| CN1CCC(CC(=O)N2CCC(C3c4ccc(Cl)cc4C=Cc4cc(Br)cnc43)CC2)CC1 (centres unmarked) [Example 400-B] | geranylgeranyl protein transferase (GGPT) I (Rattus norvegicus, UniProt P53610+Q04631) | > 38 µM |
| O=C(Cc1cccnc1)N1CCN(C2c3ccc(Cl)cc3CCc3cc(Br)cnc32)CC1 (centres unmarked) [Example 351] | geranylgeranyl protein transferase (GGPT) I (Rattus norvegicus, UniProt P53610+Q04631) | 1000 µM |
| O=C(Cc1ccncc1)N1CCC(C2c3ccc(Cl)cc3CCc3ccc[n+]([O-])c32)CC1 (centres unmarked) [Example 236] | geranylgeranyl protein transferase (GGPT) I (Rattus norvegicus, UniProt P53610+Q04631) | > 45 µM |
| O=C(Cc1cc[n+]([O-])cc1)N1CCC(C2c3ccc(Cl)cc3C=Cc3cc(Br)cnc32)CC1 (centres unmarked) [Example 400-C] | geranylgeranyl protein transferase (GGPT) I (Rattus norvegicus, UniProt P53610+Q04631) | > 38 µM |
| O=C(Nc1ccccc1)N1CCC(C2c3ccc(Cl)cc3CCc3cccnc32)CC1 (centres unmarked) [Example 312] | geranylgeranyl protein transferase (GGPT) I (Rattus norvegicus, UniProt P53610+Q04631) | > 46 µM |
| O=C(Nc1cccnc1)N1CCN(C2c3ccc(Cl)cc3CCc3cc(Br)cnc32)CC1 (centres unmarked) [Example 354] | geranylgeranyl protein transferase (GGPT) I (Rattus norvegicus, UniProt P53610+Q04631) | 1000 µM |
| O=C(Nc1ccncc1)N1CCC(C2c3ccc(Cl)cc3CCc3cccnc32)CC1 (centres unmarked) [Example 314] | geranylgeranyl protein transferase (GGPT) I (Rattus norvegicus, UniProt P53610+Q04631) | > 46 µM |

Let's switch to this molecule now.
Prompt: I am curious: what IC50 value has been reported for O=C(Cc1ccncc1)N1CCC(=C2c3ccc(Br)cc3CCc3cccnc32)CC1 [Example 181] ?
Response: > 42 µM

The measured values listed here are drawn from patent US20030055065A1.
